Values from patent US20260028338A1

TARGET OR SYSTEM: His-tagged BRD4 BD1 (46-168) (Homo sapiens)
Construct: His-tagged BRD4 BD1 (46-168) and biotinylated histone H4K5/8/12/16(Ac) peptide
MEASUREMENT NOTES: AlphaLISA competition assay, BRD4 BD1
RECORDED CONDITIONS: BRD4-BD1, AlphaLISA competition with biotinylated histone H4K5/8/12/16(Ac) peptide, 10 nM
pIC50: −log10 of the molar value.
Recorded pIC50 by entry

Known results for compounds:
# COMPOUND, MEASURED VALUE
records = [
    ("CNC(=O)COc1cc2cc(Nc3nc(N4CCC(CN5CCN(CCN(C)[C@H]6C[C@H](Oc7ccc(C(C)(C)O)cc7-c7cn(C)c(=O)c8[nH]ccc78)C6)CC5)CC4)ncc3Cl)ccc2n(C)c1=O", "7.30 to 8.30"),
    ("CCS(=O)(=O)Nc1ccc(Oc2cccc(CCN3CCN(CC4CCN(c5ncc(Cl)c(Nc6ccc7c(c6)cc(OCC(=O)NC)c(=O)n7C)n5)CC4)CC3)c2)c(-c2cn(C)c(=O)c3[nH]ccc23)c1", "7.30 to 8.30"),
    ("CNC(=O)COc1cc2cc(Nc3nc(N4CCN(CCN5CCN(CCOc6cccc(Oc7ccc(C(C)(C)O)cc7-c7cn(C)c(=O)c8[nH]ccc78)c6)CC5)CC4)ncc3Cl)ccc2n(C)c1=O", "> 8.30"),
]

(Q) GET /values?readout=pIC50&item= CNC(=O)COc1cc2cc(Nc3nc(N4CCC(CC5CN(CC6CC(Oc7ccc(C(C)(C)O)cc7-c7cn(C)c(=O)c8[nH]ccc78)C6)C5)CC4)ncc3Cl)ccc2n(C)c1=O (stereo not shown)
(A) > 8.30

(Q) GET /values?readout=pIC50&item= CNC(=O)COc1cc2cc(Nc3nc(N4CCC(CN5CCN(Cc6cccc(Oc7ccc(C(C)(C)O)cc7-c7cn(C)c(=O)c8[nH]ccc78)c6)CC5)CC4)ncc3Cl)ccc2n(C)c1=O
(A) 7.30 to 8.30

(Q) GET /values?readout=pIC50&item= CNC(=O)COc1cc2cc(Nc3nc(N4CCCC5(CN(C[C@H]6C[C@H](Oc7ccc(C(C)(C)O)cc7-c7cn(C)c(=O)c8[nH]ccc78)C6)C5)C4)ncc3Cl)ccc2n(C)c1=O
(A) > 8.30
